# Species on record: Rattus norvegicus
# protocolDetails: Inhibition of rat recombinant Rab geranylgeranyltransferase at 100 uM in presence of canine Rab7 and rat REP1 NBD-FPP based continuous fluorimetric assay
readoutKind: inhibition (%)
Answers are plain numbers, in %.

molecule	inhibition (%)
CCCCCCCCCCCOc1ccc(C(=O)N[C@@H](Cc2ccc(O)cc2)C(=O)N[C@@H](Cc2ccc(O)cc2)C(=O)N[C@@H](Cc2ccc(O)cc2)C(=O)OC)cc1	102
C[C@H](NC(=O)/C=C/c1ccc(F)cc1)C(=O)NCC(=O)N[C@@H](Cc1ccc(O)cc1)C(=O)NC1CCCCC1	11
CCCCCCCCCCCOc1ccc(C(=O)N[C@@H](Cc2c[nH]cn2)C(=O)N[C@@H](Cc2ccc(O)cc2)C(=O)N[C@@H](Cc2ccccc2)C(=O)NCCCCN)cc1	127

Batch: inhibition for all items listed.
1. CCCCCCCCCCCCCCCC(=O)N[C@@H](Cc1ccc(O)cc1)C(=O)N[C@@H](Cc1ccc(O)cc1)C(=O)N[C@@H](Cc1ccc(O)cc1)C(=O)OCCN
2. CCCCCc1ccc(CCC(=O)N[C@H](Cc2ccc(O)cc2)C(=O)N[C@@H](Cc2ccccc2)C(=O)N[C@@H](Cc2ccc(O)cc2)C(=O)O)cc1
3. CCCCCCCCCCC(=O)N[C@@H](Cc1ccc(O)cc1)C(=O)N[C@@H](Cc1c[nH]cn1)C(=O)N[C@@H](Cc1c[nH]cn1)C(=O)Nc1ccccc1N
4. O=C(CNC(=O)[C@H](Cc1c[nH]cn1)NC(=O)c1coc(-c2ccccc2)n1)N[C@@H](Cc1c[nH]c2ccccc12)C(=O)O
5. COC(=O)[C@H](CO)NC(=O)CNC(=O)[C@H](Cc1ccccc1)NC(=O)c1coc(-c2ccccc2)n1

110
2
87
69
115

State the recorded inhibition for every item in the following list.
1. COC(=O)[C@H](Cc1ccccc1)NC(=O)[C@H](CC(C)C)NC(=O)[C@@H]1CCCN1C(=O)/C=C/c1ccccc1
2. CCCCCCCCCCC(=O)N[C@@H](Cc1c[nH]cn1)C(=O)N[C@@H](Cc1ccccc1)C(=O)N[C@@H](Cc1ccc(O)cc1)C(=O)NCCCn1ccnc1
3. C[C@H](NC(=O)CCc1ccccc1)C(=O)N[C@@H](Cc1ccccc1)C(=O)N[C@@H](CCC(N)=O)C(=O)NNc1ccccc1
4. COC(=O)COC(=O)[C@H](Cc1ccccc1)N(C)C(=O)[C@H](Cc1ccc(OC)cc1)N(C)C(=O)[C@@H](Cc1ccc(O)cc1)NC(=O)CCc1ccccc1
5. CCCCCCCCCCCC(=O)N[C@@H](Cc1c[nH]cn1)C(=O)N[C@@H](Cc1c[nH]cn1)C(=O)N[C@@H](CO)C(=O)NCC(O)CO (some centres undefined)

1: 79; 2: 101; 3: 5; 4: 88; 5: 63

###

Would you kindly list IC50 for each of these molecules?
# protocolDetails: Inhibition of rat recombinant Rab geranylgeranyltransferase iin presence of canine Rab7 and rat REP1 by NBD-FPP based continuous fluorimetric assay

Quick batch: IC50 for everything below.
1. CCCCCCCCCCC(=O)N[C@@H](Cc1c[nH]cn1)C(=O)N[C@@H](Cc1c[nH]cn1)C(=O)N[C@@H](Cc1ccc(O)cc1)C(=O)NCCc1ccccn1
2. O=C(CNC(=O)[C@H](Cc1c[nH]cn1)NC(=O)c1coc(-c2ccccc2)n1)N[C@@H](Cc1ccccc1)C(=O)O
3. O=C(CNC(=O)c1coc(-c2ccccc2)n1)N[C@@H](Cc1ccccc1)C(=O)N[C@@H](Cc1cn(Cc2ccccc2)cn1)C(=O)O

["> 100 µM", "> 50 µM", "> 50 µM"]
